B1: library; a variant is named by its letters at N, in order (parent)
chain: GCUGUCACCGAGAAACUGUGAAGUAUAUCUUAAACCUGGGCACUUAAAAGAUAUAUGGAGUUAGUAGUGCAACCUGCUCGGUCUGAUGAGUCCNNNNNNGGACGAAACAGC

variants of: B1; assay: normalized RNA/DNA level with ligand (relative to sTRSVctl = 100) (log10 (% of sTRSVctl)); HEK293T; ligand: cyclic di-GMP (c-di-GMP-II aptamer); ligand concentration (+) RNA-Seq: 1 mM; higher = less ribozyme self-cleavage, higher mRNA level; details: reporter: mCherry (pCS4076), ligand present: yes
observable: normalized RNA/DNA level with ligand (log10)
# respond with the number and nothing more

Worked examples follow.
AACUUU : 1.85
CCAGGC : 1.76
CAACUG : 1.82
CGGAGC : 1.79

Give the measured normalized RNA/DNA level with ligand (log10) for CAGCCU 1.79

Give the measured normalized RNA/DNA level with ligand (log10) for ACGGGA 1.58
